B1: ADD1 (parent)
chain: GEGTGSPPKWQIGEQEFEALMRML

Variants of: B1
Experiment: protein stability index of a GFP-peptide fusion (GPS, HEK-293T) (PSI 1-6); higher = more stable;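 further: lentivirally expressed fusions sorted by FACS into six bins by GFP to DsRed ratio, PSI derived from sequencing read proportions per bin multiplied by bin number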
Settings: c terminus: a fixed tail appended
# protein stability index >= 3 gives satisfied, anything below gives not satisfied

# VARIANT IDENTIFIER, CLASSIFICATION
data = [
    ("I12Q", "satisfied"),
    ("Q11D", "satisfied"),
    ("K9G", "satisfied"),
    ("Q15E", "satisfied"),
    ("G13Y", "not satisfied"),
]

Does the variant "R22C" have recorded protein stability index that is 3 or more?
not satisfied

Check if protein stability index >= 3 (inclusive). Item: "P8Y"
not satisfied

Hi team, for "K9C" , is the recorded protein stability index at or above 3?
not satisfied

# bool: protein stability index of "P7H" >= 3
not satisfied

Hi, just wondering whether "P8V" shows protein stability index of 3 or higher.
not satisfied
